For each entry below, report its enrichment ratio value.
B1: PhoQ; a variant is named by its letters at X, in order, P23837 (parent)
chain: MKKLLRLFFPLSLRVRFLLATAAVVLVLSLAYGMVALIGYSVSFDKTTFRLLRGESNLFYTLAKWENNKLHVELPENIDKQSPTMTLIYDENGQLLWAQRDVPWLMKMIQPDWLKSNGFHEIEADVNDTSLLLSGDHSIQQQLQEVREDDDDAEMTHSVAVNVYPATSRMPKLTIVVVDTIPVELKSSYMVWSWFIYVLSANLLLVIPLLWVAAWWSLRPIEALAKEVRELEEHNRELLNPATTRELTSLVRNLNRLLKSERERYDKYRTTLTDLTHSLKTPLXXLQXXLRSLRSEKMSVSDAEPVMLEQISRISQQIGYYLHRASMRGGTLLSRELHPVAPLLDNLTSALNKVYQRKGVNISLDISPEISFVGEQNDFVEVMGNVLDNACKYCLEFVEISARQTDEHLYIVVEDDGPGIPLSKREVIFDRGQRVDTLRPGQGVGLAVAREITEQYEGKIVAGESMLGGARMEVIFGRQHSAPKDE

# Variants of: B1
# PROCEDURE TEXT: enrichment ratio after two sorts for PhoP signalling (ratio (wild type AVST 3.29)); higher = more functional
# SETUP CONDITIONS: with PhoP (E. coli)
Whole data set: some 140,000 sequences, median “enrichment ratio after two sorts for PhoP signalling” near 0, cut for the highest 2% near 11. The sample holds the highest values, similar sequences and a random draw of the others, so the mix is not that of the screen.

1) QAHF 15.5
2) KQSI ≤ 0.25
3) QDHM ≤ 0.25
4) YAHM ≤ 0.25

Hi, could you look up enrichment ratio for each item in my list?
1. QLNF
2. QAHK
3. TTSI
4. AHIG
5. NQNF
6. QQNF
7. VWPK

≤ 0.25
≤ 0.25
17.1
≤ 0.25
≤ 0.25
16.3
≤ 0.25
